Target: T1, human IL-23 (human, UniProt Q9NPF7 20-189; P29460 23-328)
T1 construct: Heterodimer p19/p40; in the ELISA captured on the plate through a biotinylated anti-p40 antibody (clone C8.6); also called cytokine IL-23 (eBioscience, 34-8239-85)
T1 sequence (looked up) 1: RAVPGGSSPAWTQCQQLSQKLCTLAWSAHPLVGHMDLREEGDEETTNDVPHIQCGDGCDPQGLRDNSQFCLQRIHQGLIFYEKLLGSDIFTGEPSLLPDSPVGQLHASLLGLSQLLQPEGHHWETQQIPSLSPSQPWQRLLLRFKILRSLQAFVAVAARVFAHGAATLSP
T1 sequence (looked up) 2: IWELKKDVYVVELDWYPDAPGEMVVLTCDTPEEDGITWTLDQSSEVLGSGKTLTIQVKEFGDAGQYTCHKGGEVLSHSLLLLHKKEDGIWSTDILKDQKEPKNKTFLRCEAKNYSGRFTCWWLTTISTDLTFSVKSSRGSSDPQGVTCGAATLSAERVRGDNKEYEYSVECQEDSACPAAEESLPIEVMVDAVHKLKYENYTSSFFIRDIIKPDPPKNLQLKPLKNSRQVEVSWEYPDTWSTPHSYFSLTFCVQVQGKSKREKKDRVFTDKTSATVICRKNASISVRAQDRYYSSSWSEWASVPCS
Test: phage ELISA; IL-23 captured by anti-p40 antibody
Readout Name: binding result

Binder	Observed Result
SEQ ID NO 40 (designed binder, Alphabody, AC12 library clone) GSIEQIQKGIAIIQETIAYIQKSIYAMTGGSGGSGGGSIEQIQKQIAAIQKQIAAIQKQIYAMTGSGGGGSGGSIEQIQKQITAIARQITAIIAQIFAMTP	binds
SEQ ID NO 43 (designed binder, Alphabody, AC12 library clone) GSIEQIQKLIASIQEYIATIQKLIYAMTGGSGGSGGGSIEQIQKQIAAIQKQIAAIQKQIYAMTGSGGGGSGGSIEQIQKQISAIMIQINAILGQIFAMTP	binds

Source: patent US20140057830A1
